compounds and their reported pIC50
# tgt: UniProt:Q12866
# Sequence (Q12866 21-999): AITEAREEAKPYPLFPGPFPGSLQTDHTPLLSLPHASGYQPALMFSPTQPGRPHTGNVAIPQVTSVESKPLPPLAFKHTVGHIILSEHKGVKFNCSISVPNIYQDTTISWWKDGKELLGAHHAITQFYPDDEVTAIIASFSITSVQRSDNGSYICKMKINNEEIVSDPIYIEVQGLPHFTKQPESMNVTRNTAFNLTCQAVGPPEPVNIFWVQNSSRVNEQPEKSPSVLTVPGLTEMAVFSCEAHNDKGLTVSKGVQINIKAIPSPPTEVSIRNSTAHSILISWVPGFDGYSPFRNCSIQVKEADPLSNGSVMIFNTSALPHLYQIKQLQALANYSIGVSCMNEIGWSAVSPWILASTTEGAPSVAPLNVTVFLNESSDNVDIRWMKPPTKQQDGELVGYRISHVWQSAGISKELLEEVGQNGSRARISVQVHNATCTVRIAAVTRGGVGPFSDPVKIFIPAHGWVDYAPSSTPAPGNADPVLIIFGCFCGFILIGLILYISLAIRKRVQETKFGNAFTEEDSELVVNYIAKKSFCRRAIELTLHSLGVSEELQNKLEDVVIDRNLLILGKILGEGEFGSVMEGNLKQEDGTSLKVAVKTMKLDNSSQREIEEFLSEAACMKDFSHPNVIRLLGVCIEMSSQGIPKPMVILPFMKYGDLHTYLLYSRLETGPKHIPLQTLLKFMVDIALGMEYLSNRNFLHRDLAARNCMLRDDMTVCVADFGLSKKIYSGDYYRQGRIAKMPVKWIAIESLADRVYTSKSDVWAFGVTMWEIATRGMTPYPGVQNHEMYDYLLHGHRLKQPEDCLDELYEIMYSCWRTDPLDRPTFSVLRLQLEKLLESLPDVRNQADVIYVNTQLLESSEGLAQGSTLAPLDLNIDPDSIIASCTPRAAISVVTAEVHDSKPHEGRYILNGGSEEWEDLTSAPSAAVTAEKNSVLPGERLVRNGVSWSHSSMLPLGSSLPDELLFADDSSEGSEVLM
# assay.explanation: Mer autophosphorylation ELISA in transient transfected 293A cells
# assay.conditions: cellular, MERTK transfected 293A cells
pIC50: −log10 of the molar value.

# annotated cases, reported pIC50 shown
{"smiles.structure": "COc1cc2nccc(Oc3ccc(NC(=O)C4(C(=O)Nc5ccc(F)cc5)CC4)cc3)c2cc1C(=O)NO", "readout.value": "7.00 to 8.00"}
{"smiles.structure": "COc1cc2nccc(Oc3ccc(NC(=O)C4(C(=O)Nc5ccc(F)cc5)CC4)cc3)c2cc1C(=O)NOC1COC1", "readout.value": "7.00 to 8.00"}
{"smiles.structure": "CNC(=O)c1cc2c(Oc3ccc(NC(=O)C4(C(=O)Nc5ccc(F)cc5OC(C)C)CC4)cc3F)ccnc2cc1OC", "readout.value": "7.00 to 8.00"}
{"smiles.structure": "COc1cc2nccc(Oc3ccc(NC(=O)C4(C(=O)Nc5ccc(F)cc5)CC4)cc3)c2cc1-c1cnn(C)c1", "readout.value": "≥ 8.00"}

input: Request the reported pIC50 associated with COc1cc2nccc(Oc3ccc(NC(=O)C4(C(=O)Nc5ccc(F)cc5)CC4)cc3)c2cc1-c1cnco1
output: ≥ 8.00

input: Try the compound CNC(=O)c1cc2nccc(Oc3cc(F)c(NC(=O)C4(C(=O)Nc5ccc(F)cc5)CC4)cc3F)c2cc1C
output: ≥ 8.00

input: Try the compound Cc1cc2c(Oc3cc(F)c(NC(=O)C4(C(=O)Nc5ccc(F)cc5)CC4)cc3F)ccnc2cc1C(N)=O
output: ≥ 8.00

input: Try the compound O=C(NOCCO)c1ccc2c(Oc3ccc(NC(=O)C4(C(=O)Nc5ccc(F)cc5)CC4)cc3F)ccnc2c1
output: 7.00 to 8.00

input: Try the compound CONC(=O)c1ccc2c(Oc3ccc(NC(=O)C4(C(=O)Nc5ccc(F)cc5)CC4)cc3)ccnc2c1
output: 7.00 to 8.00

input: Try the compound COc1cc2nccc(Oc3ccc(NC(=O)C4(C(=O)Nc5ccc(F)cc5)CC4)cc3)c2cc1C(=O)NN
output: ≥ 8.00

input: Try the compound CNC(=O)c1cc2nccc(Oc3ccc(NC(=O)C4(C(=O)Nc5ccc(F)cc5)CC4)cc3F)c2cc1C
output: 7.00 to 8.00
